tested on: Zymoseptoria tritici (SEPTTR-184); test: Cyp51 dsRNA tile (fragment) foliar application bioassay (Example 6); format: in vivo; settings: 1 day protectant; rate 12.5 ppm; average of 2 trials
readout-label: Disease Control (%) SEPTTR-184 1DP
Numeric only. Scale: %

MgCyp51-T8: dsRNA tile of Zymoseptoria tritici Cyp51, 242 bp, location 1151-1392 (nucleic acid, listed as Zymoseptoria tritici) TTCTGCGCAAGGTCAAGTCTCCCATGCCCATCGAAGGTACGGCATACGTCATTCCAACCACCCACACTCTTCTGGCCGCTCCGGGCACAACGAGCCGCATGGACGAGCACTTTCCCGACTGCCTCCATTGGGAGCCGCATCGATGGGACGAGAGCCCGTCCGAGAAATACAAGCACCTGTCCCCGACGACTGCCCTAGGAAGCATCGCCGAGGAGAAAGAAGACTATGGCTACGGCCTGGTA : 64
MgCyp51-T3: dsRNA tile of Zymoseptoria tritici Cyp51, 230 bp, location 450-679 (nucleic acid, listed as Zymoseptoria tritici) CGTCAAGTACGGCCTCACAACCTCTGCCCTCCAGTCCTACGTGACCTTGATCGCCGCCGAGACCCGCCAGTTCTTCGACCGCAACAACCCTCATAAGAAGTTCGCATCGACCAGCGGCACGATCGATCTCCCACCAGCCCTCGCCGAACTTACGATCTATACTGCCAGCCGATCATTGCAAGGAAAGGAAGTCCGCGAGGGCTTCGACTCGTCTTTCGCGGACCTCTACC : 72

Note: attention shifts to another entry.
Recorded Disease Control (%) SEPTTR-184 1DP for MgCyp51-T10: dsRNA tile of Zymoseptoria tritici Cyp51, 172 bp, location 345-516 (nucleic acid, listed as Zymoseptoria tritici) GGACGTCAACGCGGAGGAGATATACAGCCCGCTGACCACTCCTGTCTTTGGCAAGGATGTGGTTTATGATTGTCCCAATTCGAAGCTCATGGAGCAGAAGAAGTTCGTCAAGTACGGCCTCACAACCTCTGCCCTCCAGTCCTACGTGACCTTGATCGCCGCCGAGACCCGC , please?
64
